half-life for assorted compounds
- Assay notes: Rat cassette pharmacokinetics
- Assay type: in vivo
- Condition info: male, SD, plasma; rat cassette dosing, 5 mg/kg PO; read-out: PO T½ (converted)
The answer is to be given in h; state only the numeric part.

Example entries begin here.
| Compound | Numeric result |
| --- | --- |
| CC(C)NC(=O)N1CCC(C)(Nc2ncc(C(=O)Nc3cc(-c4cccs4)ccc3N)cn2)CC1 | 3.8 |
| Nc1ccc(-c2cccs2)cc1NC(=O)c1cnc(NC2CCN(C(=O)N3CCOCC3)CC2)nc1 | 17 |
| CC(C)C1(Nc2ncc(C(=O)Nc3cc(-c4cccs4)ccc3N)cn2)CCN(C(=O)N2CCN(C)CC2)CC1 | 5.9 |

For the next question, use this compound.
Task: Consider the compound `Nc1ccc(-c2cccs2)cc1NC(=O)c1ccc(NC2CCN(C(=O)N3CCCC3)CC2)cc1` and give its measured half-life.
Result: 14.5

* * *

- Assayed target: UniProt:O15379
- Assay notes: HDAC enzyme assay, HDAC3
- Format: biochemical
- Condition info: 24 hours pre-incubation with enzyme; read-out: IC50 (nM) HDAC3
Decision: IC50 beneath 200 nM gives Condition met; IC50 meeting or exceeding 200 nM gives Condition not met.

Worked set:
| Compound | Discrete label |
| --- | --- |
| CCC1(Nc2ccc(C(=O)Nc3cc(-c4cccs4)ccc3N)cc2)CCN(C(=O)N2CCOCC2)CC1 | Condition not met |
| Nc1ccc(-c2cccs2)cc1NC(=O)c1cnc(N2CCCC23CCN(C(=O)N2CCCC2)CC3)nc1 | Condition not met |
| CC1(Nc2ccc(C(=O)Nc3cc(-c4cccs4)ccc3N)cc2)CCN(C(=O)N2CCNCC2)CC1 | Condition met |
| Nc1ccc(-c2cccs2)cc1NC(=O)c1cnc(NC2CCN(C(=O)N3CCCCC3)CC2)nc1 | Condition not met |

Task: Regarding `Nc1ccc(-c2cccs2)cc1NC(=O)c1ccc(NC2CCN(C(=O)C3(O)CCCC3)CC2)cc1` , kindly confirm whether its IC50 is beneath 200 nM.
Result: Condition not met

Task: Lookup `CC1(Nc2ncc(C(=O)Nc3cc(-c4cccs4)ccc3N)cn2)CCN(C(=O)N2CCOCC2)CC1`
Result: Condition met

* * *

- Assay notes: Rat cassette pharmacokinetics
- Type: in vivo
- Condition info: male, SD, plasma, 5 mg/kg; rat; oral AUC to IV AUC, dose adjusted
bioavailability for assorted compounds
The answer is to be given in %; state only the numeric part.

| Compound | bioavailability [%] |
| --- | --- |
| CN1CCN(C(=O)N2CCC(Nc3ccc(C(=O)Nc4cc(-c5cccs5)ccc4N)cc3)CC2)CC1 | 79 |
| Nc1ccc(-c2cccs2)cc1NC(=O)c1cnc(NC2CCN(C(=O)N3CCOCC3)CC2)nc1 | 118 |
| CC(C)NC(=O)N1CCC(C)(Nc2ncc(C(=O)Nc3cc(-c4cccs4)ccc3N)cn2)CC1 | 63 |
| CC(C)C1(Nc2ncc(C(=O)Nc3cc(-c4cccs4)ccc3N)cn2)CCN(C(=O)N2CCN(C)CC2)CC1 | 142 |

Task: Consider the compound `Nc1ccc(-c2cccs2)cc1NC(=O)c1ccc(NC2CCN(C(=O)N3CCCC3)CC2)cc1` and give its measured bioavailability.
Result: 76

* * *

- Assayed target: HDAC1 (Homo sapiens (Human), UniProt Q13547)
- Sequence (Q13547 whole entry): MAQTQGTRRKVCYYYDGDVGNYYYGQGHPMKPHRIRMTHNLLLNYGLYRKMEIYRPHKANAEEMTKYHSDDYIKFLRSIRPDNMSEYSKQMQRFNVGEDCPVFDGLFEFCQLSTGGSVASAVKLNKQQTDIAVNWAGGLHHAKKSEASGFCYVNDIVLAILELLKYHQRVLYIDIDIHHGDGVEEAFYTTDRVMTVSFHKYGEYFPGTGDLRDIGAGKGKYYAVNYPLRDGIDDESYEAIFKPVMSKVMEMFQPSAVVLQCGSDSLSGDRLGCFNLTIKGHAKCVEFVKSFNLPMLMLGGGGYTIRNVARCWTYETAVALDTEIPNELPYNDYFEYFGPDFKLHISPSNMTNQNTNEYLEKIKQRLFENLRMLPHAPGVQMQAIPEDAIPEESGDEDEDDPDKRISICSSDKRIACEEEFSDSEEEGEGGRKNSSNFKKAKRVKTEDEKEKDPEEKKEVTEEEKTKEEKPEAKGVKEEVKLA
- Assay notes: HDAC enzyme assay, HDAC1
- Assay type: biochemical
- Condition info: reference compound; read-out: IC50 for HDAC1
pIC50: −log10 of the molar value.
Experimental endpoint: pIC50

Task: Consider the compound Nc1ccc(-c2cccs2)cc1NC(=O)c1ccc2nc(N3CCNCC3)ccc2c1 [Compound A, reference compound] and give its measured pIC50.
Result: ~8.40

* * *

AUC for assorted compounds
- Assay notes: Rat cassette pharmacokinetics
- Format: in vivo
- Condition info: male, SD, plasma; rat cassette dosing, 5 mg/kg PO
The answer is to be given in ng·h/mL; state only the numeric part.

| Compound | AUC / ng·h/mL |
| --- | --- |
| Nc1ccc(-c2cccs2)cc1NC(=O)c1cnc(NC2CCN(C(=O)N3CCOCC3)CC2)nc1 | 59900 |
| CC(C)C1(Nc2ncc(C(=O)Nc3cc(-c4cccs4)ccc3N)cn2)CCN(C(=O)N2CCN(C)CC2)CC1 | 6090 |
| CN1CCN(C(=O)N2CCC(Nc3ccc(C(=O)Nc4cc(-c5cccs5)ccc4N)cc3)CC2)CC1 | 9160 |
| Nc1ccc(-c2cccs2)cc1NC(=O)c1ccc(NC2CCN(C(=O)N3CCCC3)CC2)cc1 | 31600 |

For the next question, use this compound.
Task: Consider the compound `CC(C)NC(=O)N1CCC(C)(Nc2ncc(C(=O)Nc3cc(-c4cccs4)ccc3N)cn2)CC1` and give its measured AUC.
Result: 5960

* * *

- Assayed target: HDAC2 (Homo sapiens (Human), UniProt Q92769)
- Sequence (Q92769 whole entry): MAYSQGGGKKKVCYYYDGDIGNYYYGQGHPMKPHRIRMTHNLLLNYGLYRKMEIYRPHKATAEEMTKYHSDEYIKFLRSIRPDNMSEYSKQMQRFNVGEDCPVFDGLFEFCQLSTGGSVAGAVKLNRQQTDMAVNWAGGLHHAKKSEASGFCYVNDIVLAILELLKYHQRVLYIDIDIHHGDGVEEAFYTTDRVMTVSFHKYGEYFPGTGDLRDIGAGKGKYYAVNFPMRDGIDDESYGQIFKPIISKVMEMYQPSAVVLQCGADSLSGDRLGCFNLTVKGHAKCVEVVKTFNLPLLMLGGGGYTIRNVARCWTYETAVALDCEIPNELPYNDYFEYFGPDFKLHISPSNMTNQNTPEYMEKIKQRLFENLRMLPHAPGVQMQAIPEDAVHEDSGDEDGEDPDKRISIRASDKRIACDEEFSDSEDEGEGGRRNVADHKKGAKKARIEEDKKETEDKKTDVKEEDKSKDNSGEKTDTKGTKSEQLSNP
- Assay notes: HDAC enzyme assay, HDAC2
- Format: biochemical
- Condition info: 24 hours pre-incubation with enzyme; read-out: IC50 (nM) HDAC2
IC50 for assorted compounds
The answer is to be given in nM; state only the numeric part.

| Compound | IC50, nM |
| --- | --- |
| CC(C)C1(Nc2ncc(C(=O)Nc3cc(-c4cccs4)ccc3N)cn2)CCN(C(=O)N2CCN(C)CC2)CC1 | 28 |

Task: Consider the compound CN1CCC(Nc2ncc(C(=O)Nc3cc(-c4ccccc4)ccc3N)cn2)c2ccccc21 (stereo not drawn) and give its measured IC50.
Result: 714

Task: Lookup `CC1(Nc2ncc(C(=O)Nc3cc(-c4cccs4)ccc3N)cn2)CCN(C(=O)N2CCNCC2)CC1`
Result: 26

Task: Lookup `Nc1ccc(-c2cccs2)cc1NC(=O)c1cnc(NC2CCN(C(=O)N3CCOCC3)CC2)nc1`
Result: 56

Task: Lookup `CC1(Nc2ccc(C(=O)Nc3cc(-c4ccncc4)ccc3N)cc2)CCN(C(=O)N2CCOCC2)CC1`
Result: 17

Task: Lookup `CN1CCC(Nc2ncc(C(=O)Nc3cc(-c4cccs4)ccc3N)cn2)(c2ccccc2)CC1`
Result: 72

Task: Lookup `CN1CCN(C(=O)N2CCC(C)(Nc3ccc(C(=O)Nc4cc(-c5cccs5)ccc4N)cc3)CC2)CC1`
Result: 13

Task: Lookup `CCC1(Nc2ccc(C(=O)Nc3cc(-c4cccs4)ccc3N)cc2)CCN(C(=O)N2CCNCC2)CC1`
Result: 20

Task: Lookup `Nc1ccc(-c2cccs2)cc1NC(=O)c1cnc(N2CCCC23CCN(C(=O)N2CCCC2)CC3)nc1`
Result: 78

* * *

- Assayed target: HDAC2 (Homo sapiens (Human))
- Assay notes: HDAC enzyme assay, HDAC2
- Assay type: biochemical
- Condition info: 24 hours pre-incubation with enzyme; read-out: IC50 (nM) HDAC2
Decision: IC50 beneath 30 nM gives T; IC50 meeting or exceeding 30 nM gives F.

Task: Regarding CN1CCC(Nc2ncc(C(=O)Nc3cc(-c4ccccc4)ccc3N)cn2)CC1 [Compound 040] , kindly confirm whether its IC50 is beneath 30 nM.
Result: F

Task: Lookup Nc1ccc(-c2cccs2)cc1NC(=O)c1ccc(NC2CCN(C(=O)N3CCOCC3)CC2)cc1 [Compound 020]
Result: T

Task: Lookup CC1(Nc2ccc(C(=O)Nc3cc(-c4ccccc4)ccc3N)cc2C2CC2)CCN(C(=O)N2CCOCC2)CC1 [Compound 037]
Result: F

Task: Lookup CN1CCN(C(=O)N2CCC(Nc3ccc(C(=O)Nc4cc(-c5cccs5)ccc4N)cc3)CC2)CC1 [Compound 005]
Result: T

* * *

- Assayed target: UniProtKB Q13547
- Assay notes: HDAC enzyme assay, HDAC1
- Format: biochemical
- Condition info: 24 hours pre-incubation with enzyme; read-out: IC50 (nM) HDAC1
Experimental endpoint: IC50 (nM)
The answer is to be given in nM; state only the numeric part.

Example entries begin here.
| Molecule | Units label | IC50 |
| --- | --- | --- |
| Nc1ccc(-c2ccccc2)cc1NC(=O)c1cnc(NC2CCNc3ccccc32)nc1 (stereo not shown) | nM | 101 |
| CC1(Nc2ncc(C(=O)Nc3cc(-c4cccs4)ccc3N)cn2)CCN(C(=O)N2CCC(F)(F)CC2)CC1 | nM | 19 |

Task: Consider the molecule `Nc1ccc(-c2cccs2)cc1NC(=O)c1ccc(NC2CCN(C(=O)C3CCCCC3)CC2)cc1` and give its measured IC50.
Result: 15

Task: Lookup `CC(C)NC(=O)N1CCC(C)(Nc2ncc(C(=O)Nc3cc(-c4cccs4)ccc3N)cn2)CC1`
Result: 6.5

* * *

- Assayed target: HDAC3 (Homo sapiens (Human))
- Sequence (O15379 whole entry): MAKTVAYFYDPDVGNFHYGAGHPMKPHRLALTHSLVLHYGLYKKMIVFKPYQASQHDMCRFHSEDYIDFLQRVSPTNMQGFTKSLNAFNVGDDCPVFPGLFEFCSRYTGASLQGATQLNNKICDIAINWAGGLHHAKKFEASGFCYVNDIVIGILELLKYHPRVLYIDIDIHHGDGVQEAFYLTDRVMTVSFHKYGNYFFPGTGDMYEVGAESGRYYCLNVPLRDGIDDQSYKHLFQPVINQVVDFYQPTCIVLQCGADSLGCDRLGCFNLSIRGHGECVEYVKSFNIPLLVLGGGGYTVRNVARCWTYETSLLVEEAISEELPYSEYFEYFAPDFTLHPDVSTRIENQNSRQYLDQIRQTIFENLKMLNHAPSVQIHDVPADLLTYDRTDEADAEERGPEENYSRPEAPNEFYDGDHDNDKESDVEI
- Sequence (Q9Y618 395-489 partner): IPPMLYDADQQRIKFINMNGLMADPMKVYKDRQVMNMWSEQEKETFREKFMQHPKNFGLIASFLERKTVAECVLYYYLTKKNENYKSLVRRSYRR
- Assay notes: HDAC enzyme assay, HDAC3
- Type: biochemical
- Condition info: 24 hours pre-incubation with enzyme; read-out: IC50 (nM) HDAC3
Decision: IC50 beneath 300 nM gives rule met; IC50 meeting or exceeding 300 nM gives rule not met.

Worked set:
| Compound | Discrete label |
| --- | --- |
| Nc1ccc(-c2ccccc2)cc1NC(=O)c1cnc(N(c2ccccc2)C2CCN(C(=O)Cc3c[nH]c4ccccc34)CC2)nc1 | rule not met |
| CC1(Nc2ncc(C(=O)Nc3cc(-c4cccs4)ccc3N)cn2)CCN(C(=O)N2CCC(O)CC2)CC1 | rule not met |
| Nc1ccc(-c2cccs2)cc1NC(=O)c1cnc(NC2CCN(c3ccccc3)CC2)nc1 | rule not met |
| CN1CCN(C(=O)N2CCC(Nc3ccc(C(=O)Nc4cc(-c5cccs5)ccc4N)cc3)CC2)CC1 | rule met |
| Nc1ccc(-c2cccs2)cc1NC(=O)c1ccc(NC2CCN(c3ccccc3)CC2)cc1 | rule not met |

Task: Regarding `CC1(Nc2ccc(C(=O)Nc3cc(-c4cccnc4)ccc3N)cc2)CCN(C(=O)N2CCOCC2)CC1` , kindly confirm whether its IC50 is beneath 300 nM.
Result: rule met

Task: Lookup CN1CCC(Nc2ncc(C(=O)Nc3cc(-c4ccccc4)ccc3N)cn2)c2ccccc21 (stereo not shown)
Result: rule not met

Task: Lookup `Cc1[nH]c2ccccc2c1CC(=O)N1CCC(N(c2ccccc2)c2ncc(C(=O)Nc3cc(-c4ccccc4)ccc3N)cn2)CC1`
Result: rule not met

Task: Lookup `Nc1ccc(-c2cccs2)cc1NC(=O)c1ccc(NC2CCN(C(=O)N3CCCC3)CC2)cc1`
Result: rule met

Task: Lookup `CC(C)NC(=O)N1CCC(C)(Nc2ncc(C(=O)Nc3cc(-c4cccs4)ccc3N)cn2)CC1`
Result: rule not met

Task: Lookup Nc1ccc(-c2ccccc2)cc1NC(=O)c1cnc(NC2CCNc3ccccc32)nc1 (stereo not shown)
Result: rule not met

Task: Lookup `CCC1(Nc2ccc(C(=O)Nc3cc(-c4cccs4)ccc3N)cc2)CCN(C(=O)N2CCNCC2)CC1`
Result: rule met

Task: Lookup `Nc1ccc(-c2ccncc2)cc1NC(=O)c1ccc(NC2CCN(C(=O)N3CCCC3)CC2)cc1`
Result: rule not met

Task: Lookup `CC1(Nc2ccc(C(=O)Nc3cc(-c4ccncc4)ccc3N)cc2)CCN(C(=O)N2CCOCC2)CC1`
Result: rule not met

Task: Lookup `CC1(Nc2ncc(C(=O)Nc3cc(-c4cccs4)ccc3N)cn2)CCN(C(=O)N2CCC(F)(F)CC2)CC1`
Result: rule not met

Task: Lookup `Nc1ccc(-c2cccs2)cc1NC(=O)c1cnc(NC2CCN(C(=O)N3CCOCC3)CC2)nc1`
Result: rule met

Task: Lookup `CC1(Nc2ccc(C(=O)Nc3cc(-c4cccs4)ccc3N)cc2)CCN(C(=O)N2CCCC2)CC1`
Result: rule not met

Task: Lookup `Nc1ccc(-c2ccccc2)cc1NC(=O)c1cnc(NC2CCNCC2)nc1`
Result: rule not met
